So I've got a bunch of binders here, and I need their EC50 values.
Molecular target: βarr1–12-387-AF488-AT647N (cysteine-free human β-arrestin 1 C-tail sensor with cysteines at positions 12 and 387) (human) (UniProt P49407)
Assay: other fluorescence titration
Where no end group is shown, it is not given here. [ ]: non-standard residue; d: D form. pT = C[C@@H](OP(=O)(O)O)[C@H](N)C(=O)O; pS = N[C@@H](COP(=O)(O)O)C(=O)O
Give bare numbers, in µM.

>>> recorded_number("ARGR[pT]PP[pS]LGPQDE[pS]C[pT][pT]A[pS][pS][pS]LAKDTSS")
1.5

Param item = ARGRTPPSLGPQDESCT[pT]A[pS][pS][pS]LAKDTSS [P56, V2Rpp-derived phosphopeptide lacking four N-terminal phosphorylation sites] ; retrieve measured EC50.
30
